- Test system: FMOC02_2 (patient-derived low-grade serous ovarian cancer cells)
- assay-overview: drug sensitivity score (DSS3, normalised partial AUC of % inhibition dose-response) (DSS (score)); higher = more sensitive (stronger inhibition of viability); extreme values may be limits of the assay
- recorded-conditions: 72 h; library: FO5A; assay format: 2D, 384-well, CellTiter-Glo
Decide by drug sensitivity score: equal to or exceeding 10 means true (1), less means false (0).

Exercise: Could you please find out whether NC(=O)c1cccc(-c2cccc(OC(=O)NC3CCCCC3)c2)c1 [URB597] has drug sensitivity score that meets 10 or exceeds it?
Key: false (0)

Exercise: Could you please find out whether COc1c(C)cnc(Cn2cnc3c(Cl)nc(N)nc32)c1C [BIIB021] has drug sensitivity score that meets 10 or exceeds it?
Key: true (1)

Exercise: Could you please find out whether Nc1cc(C(F)(F)F)c(-c2cc(N3CCOCC3)nc(N3CCOCC3)n2)cn1 [Buparlisib] has drug sensitivity score that meets 10 or exceeds it?
Key: true (1)

Exercise: Could you please find out whether COc1ccc(S(=O)(=O)Nc2cccnc2Nc2ccc(O)cc2)cc1 [ABT-751] has drug sensitivity score that meets 10 or exceeds it?
Key: false (0)

Exercise: Could you please find out whether `C[C@H]1Oc2cc(cnc2N)-c2c(nn(C)c2C#N)CN(C)C(=O)c2ccc(F)cc21` has drug sensitivity score that meets 10 or exceeds it?
Key: false (0)

* * *

- Tested on: FMOC09 (patient-derived high-grade serous ovarian cancer cells)
- assay-overview: drug sensitivity score (DSS3, normalised partial AUC of % inhibition dose-response) (DSS (score)); higher = more sensitive (stronger inhibition of viability); extreme values may be limits of the assay
- recorded-conditions: 72 h; library: FO5A; assay format: 2D, 384-well, CellTiter-Glo
metric: drug sensitivity score
Lab note: write the figure by itself, no unit.

Exercise: Write down drug sensitivity score measured for item C=CC(=O)Nc1cc2c(Nc3ccc(F)c(Cl)c3)ncnc2cc1OCCCN1CCOCC1 [Canertinib]
Key: 20.8

Exercise: Write down drug sensitivity score measured for item C=CCc1cccc(/C=N/NC(=O)CN2CCN(Cc3ccccc3)CC2)c1O [PAC-1]
Key: 4.8

Exercise: Write down drug sensitivity score measured for item COc1cc(C)c(/C=C/C(C)=C/C=C/C(C)=C/C(=O)O)c(C)c1C [Acitretin]
Key: 0

Exercise: Write down drug sensitivity score measured for item N[C@@H]1CCCN(c2c(/C=C3\SC(=O)NC3=O)cccc2-c2ccccc2)C1 [AZD1208]
Key: 3.2

Exercise: Write down drug sensitivity score measured for item Cc1ccc(NC(=O)c2ccc(CN3CCN(C)CC3)cc2)cc1Nc1nc(-c2cccnc2)cs1 [Masitinib]
Key: 2.7

Exercise: Write down drug sensitivity score measured for item CN(C)CCCOc1ccc(-c2ccc3ncc4c(c3c2)n(C2CCOCC2)c(=O)n4C)cn1 [AZD0156]
Key: 0.1

Exercise: Write down drug sensitivity score measured for item Cn1c(=O)n(-c2ccc(C(C)(C)C#N)cc2)c2c3cc(-c4cnc5ccccc5c4)ccc3ncc21 [Dactolisib]
Key: 14.4

Exercise: Write down drug sensitivity score measured for item C=CC(=O)Nc1cccc(Nc2nc(Nc3ccc(OCCOC)cc3)ncc2F)c1 [Spebrutinib]
Key: 1.5

Exercise: Write down drug sensitivity score measured for item CS(=O)(=O)c1ccc(-c2cnc(N)c(C(=O)Nc3ccccc3)n2)cc1 [VE-821]
Key: 0

Exercise: Write down drug sensitivity score measured for item CCCCCCCCCCCCCCCCCCOP(=O)([O-])OC1CC[N+](C)(C)CC1 [Perifosine]
Key: 0

Exercise: Write down drug sensitivity score measured for item C[C@@H](Nc1cc(F)cc(F)c1)c1cc(C(=O)N(C)C)cc2c(=O)cc(N3CCOCC3)oc12 [AZD-8186]
Key: 2.4

Exercise: Write down drug sensitivity score measured for item `C[C@@H]1CN(CC(=O)Nc2ccc3c(c2)Cc2cccc(-c4cc(=O)cc(N5CCOCC5)o4)c2S3)C[C@H](C)O1`
Key: 0

Exercise: Write down drug sensitivity score measured for item O=C(O)CC[C@H]1CC[C@@](c2cc(F)ccc2F)(S(=O)(=O)c2ccc(Cl)cc2)CC1 [MK-0752]
Key: 0

Exercise: Write down drug sensitivity score measured for item O=C(O)CNC(=O)c1c(O)c2ccccc2n(Cc2ccccc2)c1=O [IOX-2]
Key: 0

Exercise: Write down drug sensitivity score measured for item CC(C)(C)NC(=O)[C@H]1CC[C@H]2[C@@H]3CC[C@H]4NC(=O)C=C[C@]4(C)[C@H]3CC[C@]12C [Finasteride]
Key: 0

Exercise: Write down drug sensitivity score measured for item CNCc1ccc(-c2[nH]c3cc(F)cc4c3c2CCNC4=O)cc1 [Rucaparib]
Key: 0

Exercise: Write down drug sensitivity score measured for item CC(C)(C)c1nc(-c2cccc(NS(=O)(=O)c3c(F)cccc3F)c2F)c(-c2ccnc(N)n2)s1 [Dabrafenib]
Key: 0

Exercise: Write down drug sensitivity score measured for item COc1ccc(S(=O)(=O)Nc2cccnc2Nc2ccc(O)cc2)cc1 [ABT-751]
Key: 7.3

Exercise: Write down drug sensitivity score measured for item CCC/C=C/C=C/C(=O)O[C@H]1/C(=C/C(=O)OC)C[C@H]2C[C@H]([C@@H](C)O)OC(=O)C[C@H](O)C[C@@H]3C[C@H](OC(C)=O)C(C)(C)[C@](O)(C[C@@H]4C/C(=C/C(=O)OC)C[C@H](/C=C/C(C)(C)[C@]1(O)O2)O4)O3 [Bryostatin 1]
Key: 0.6

Exercise: Write down drug sensitivity score measured for item O=C(Nc1cc(Oc2cc(F)c(NC(=O)C3(C(=O)Nc4ccc(F)cc4)CC3)cc2F)ccn1)C1CC1 [Altiratinib]
Key: 1.7

Exercise: Write down drug sensitivity score measured for item Cc1[nH]nc(C(F)(F)F)c1Cc1sc2c(c1C(=O)N1C[C@](C)(O)CO1)c(=O)n(C)c(=O)n2C(C)C [AZD3965]
Key: 0

Exercise: Write down drug sensitivity score measured for item O=C(CCNC(=O)c1ccc(OC(F)(F)F)cc1)N[C@@H]1CCCc2ccccc21 [ML390]
Key: 0

Exercise: Write down drug sensitivity score measured for item CCc1c2c(nc3ccc(O)cc13)-c1cc3c(c(=O)n1C2)COC(=O)[C@]3(O)CC [SN-38]
Key: 15.1

Exercise: Write down drug sensitivity score measured for item CC[C@]1(O)C[C@H]2CN(CCc3c([nH]c4ccccc34)[C@@](C(=O)OC)(c3cc4c(cc3OC)N(C=O)[C@H]3[C@@](O)(C(=O)OC)[C@H](OC(C)=O)[C@]5(CC)C=CCN6CC[C@]43[C@@H]65)C2)C1 [Vincristine]
Key: 12.5

Exercise: Write down drug sensitivity score measured for item `O=C(NOC[C@H](O)CO)c1ccc(F)c(F)c1Nc1ccc(I)cc1F`
Key: 8

Exercise: Write down drug sensitivity score measured for item COc1cc(Br)c(Nc2nc(-c3c(C)nc4ncccn34)cs2)c(Br)c1 [PTC-209]
Key: 6

Exercise: Write down drug sensitivity score measured for item CN[C@@H]1C[C@H]2O[C@@](C)([C@@H]1OC)n1c3ccccc3c3c4c(c5c6ccccc6n2c5c31)C(=O)N[C@H]4O [UCN-01]
Key: 20.7

Exercise: Write down drug sensitivity score measured for item COC(=O)c1ccc2c(c1)[nH]c1ncnc(NCCCN3CCCCC3)c12 [UM729]
Key: 0

Exercise: Write down drug sensitivity score measured for item C[C@@H]1CN(C(=O)c2ccc(NC(=O)c3cc(O[C@H](C)c4c(Cl)ccc(F)c4Cl)c(N)nn3)cc2)C[C@H](C)N1 [Ensartinib]
Key: 1.1

Exercise: Write down drug sensitivity score measured for item O=C1NC(=O)[C@@H](c2cn3c4c(cccc24)CCC3)[C@@H]1c1c[nH]c2ccccc12 [Tivantinib]
Key: 4.3

Exercise: Write down drug sensitivity score measured for item `CC[C@@H]1[C@H](F)C(=O)N[C@@H]1COc1nccc2cc(C(N)=O)c(OC)cc12`
Key: 0

* * *

What drug sensitivity score was measured for each of the following?
- System: FMOC04 (patient-derived high-grade serous ovarian cancer cells)
- assay-overview: drug sensitivity score (DSS3, normalised partial AUC of % inhibition dose-response) (DSS (score)); higher = more sensitive (stronger inhibition of viability); extreme values may be limits of the assay
- recorded-conditions: 72 h; library: FO5A; assay format: 2D, 384-well, CellTiter-Glo
Lab note: write the figure by itself, no unit.

Exercise: Write down drug sensitivity score measured for item CC1(C)CNc2cc(NC(=O)c3cccnc3NCc3ccncc3)ccc21 [Motesanib]
Key: 0

Exercise: Write down drug sensitivity score measured for item Cn1cc(-c2cnn3c(N)c(Br)c([C@@H]4CCCNC4)nc23)cn1 [MK-8776]
Key: 2.45

Exercise: Write down drug sensitivity score measured for item `Cc1c(-c2c(-c3ccc(F)o3)sc3ncnc(O[C@H](Cc4ccccc4OCc4ccnn4CC(F)(F)F)C(=O)O)c23)ccc(OCCN2CCN(C)CC2)c1Cl`
Key: 0.05

Exercise: Write down drug sensitivity score measured for item CCc1c(C(=O)C(N)=O)c2c(OCC(=O)O)cccc2n1Cc1ccccc1 [Varespladib]
Key: 0

Exercise: Write down drug sensitivity score measured for item COc1cc(Nc2ncc(F)c(Nc3ccc4c(n3)N(COP(=O)(O)O)C(=O)C(C)(C)O4)n2)cc(OC)c1OC [Fostamatinib]
Key: 0

Exercise: Write down drug sensitivity score measured for item CC/C(=C(\c1ccccc1)c1ccc(OCCN(C)C)cc1)c1ccccc1 [Tamoxifen]
Key: 3.75

Exercise: Write down drug sensitivity score measured for item `C[C@H]1C[C@@H](n2c(Nc3ccc(OC(F)(F)F)cc3)nc3cc(CCC(=O)O)ccc32)CC(C)(C)C1`
Key: 0

Exercise: Write down drug sensitivity score measured for item CS(=O)(=O)c1ccc(-c2cnc(N)c(C(=O)Nc3ccccc3)n2)cc1 [VE-821]
Key: 0

Exercise: Write down drug sensitivity score measured for item Nc1ncn([C@H]2C[C@H](O)[C@@H](CO)O2)c(=O)n1 [Decitabine]
Key: 0

Exercise: Write down drug sensitivity score measured for item COc1cc2nccc(Oc3ccc(NC(=O)Nc4cc(C)on4)c(Cl)c3)c2cc1OC [Tivozanib]
Key: 0.3

Exercise: Write down drug sensitivity score measured for item COc1cc2c(N3CCN(C(=O)Nc4ccc(OC(C)C)cc4)CC3)ncnc2cc1OCCCN1CCCCC1 [Tandutinib]
Key: 0

Exercise: Write down drug sensitivity score measured for item O=C1CCC(N2C(=O)c3ccccc3C2=O)C(=O)N1 (stereo unspecified) [Thalidomide]
Key: 0

Exercise: Write down drug sensitivity score measured for item CCCS(=O)(=O)Nc1ccc(F)c(C(=O)c2c[nH]c3ncc(-c4ccc(Cl)cc4)cc23)c1F [Vemurafenib]
Key: 0

Exercise: Write down drug sensitivity score measured for item COc1cc2c(NC3CCN(C(C)C)CC3)nc(C3CCCCC3)nc2cc1OCCCN1CCCC1 [UNC0638]
Key: 4.3

Exercise: Write down drug sensitivity score measured for item Cc1nc(NC(=O)N2CCC[C@H]2C(N)=O)sc1-c1ccnc(C(C)(C)C(F)(F)F)c1 [Alpelisib]
Key: 0.9

Exercise: Write down drug sensitivity score measured for item CC(C)(C)NC(=O)[C@H]1CC[C@H]2[C@@H]3CC[C@H]4NC(=O)C=C[C@]4(C)[C@H]3CC[C@]12C [Finasteride]
Key: 0

Exercise: Write down drug sensitivity score measured for item C[C@]12C=CC(=O)C=C1CC[C@@H]1[C@@H]2[C@@H](O)C[C@@]2(C)[C@H]1CC[C@]2(O)C(=O)CO [Prednisolone]
Key: 0

Exercise: Write down drug sensitivity score measured for item CS(=O)(=O)CCNCc1ccc(-c2ccc3ncnc(Nc4ccc(OCc5cccc(F)c5)c(Cl)c4)c3c2)o1 [Lapatinib]
Key: 0

Exercise: Write down drug sensitivity score measured for item CCC/C=C/C=C/C(=O)O[C@H]1/C(=C/C(=O)OC)C[C@H]2C[C@H]([C@@H](C)O)OC(=O)C[C@H](O)C[C@@H]3C[C@H](OC(C)=O)C(C)(C)[C@](O)(C[C@@H]4C/C(=C/C(=O)OC)C[C@H](/C=C/C(C)(C)[C@]1(O)O2)O4)O3 [Bryostatin 1]
Key: 0.7

Exercise: Write down drug sensitivity score measured for item CN(C)CCOc1ccc(/C(=C(/CCCl)c2ccccc2)c2ccccc2)cc1 [Toremifene]
Key: 4

Exercise: Write down drug sensitivity score measured for item Cc1nc(C(=O)NCC(=O)O)c(O)c2ccc(Oc3ccccc3)cc12 [Roxadustat]
Key: 0

Exercise: Write down drug sensitivity score measured for item CNC(=O)c1ccc(N2C(=S)N(c3ccc(C#N)c(C(F)(F)F)c3)C(=O)C2(C)C)cc1F [Enzalutamide]
Key: 0

Exercise: Write down drug sensitivity score measured for item Cc1cc(Nc2ncc(Cl)c(Nc3ccccc3S(=O)(=O)C(C)C)n2)c(OC(C)C)cc1C1CCNCC1 [Ceritinib]
Key: 3.15

Exercise: Write down drug sensitivity score measured for item CCNc1nc(Nc2cc(F)c(C(=O)N3CCOCC3)cc2OC)ncc1C(F)(F)F [GNE-7915]
Key: 0

Exercise: Write down drug sensitivity score measured for item Nc1cccc2c1C(=O)N(C1CCC(=O)NC1=O)C2=O (stereo unspecified) [Pomalidomide]
Key: 0

Exercise: Write down drug sensitivity score measured for item CC1=C(/C=C/C(C)=C/C=C/C(C)=C/C(=O)O)C(C)(C)CCC1 [Tretinoin]
Key: 0

Exercise: Write down drug sensitivity score measured for item C=CC(=O)Nc1cccc(Oc2nc(Nc3ccc(N4CCN(C)CC4)cc3)nc3ccsc23)c1 [Olmutinib]
Key: 0.05

Exercise: Write down drug sensitivity score measured for item CCCCNc1ncc(C(=O)NCc2ccc(-n3ccnc3)cc2)c(NC2CCC(O)CC2)n1 (stereo unspecified) [UNC2881]
Key: 0

Exercise: Write down drug sensitivity score measured for item `CCn1c(-c2nonc2N)nc2cnc(Oc3cccc(NC(=O)c4ccc(OCCN5CCOCC5)cc4)c3)cc21`
Key: 0.6

Exercise: Write down drug sensitivity score measured for item COc1cccc2c1c(O)c(C(=O)N(C)c1ccc(C(F)(F)F)cc1)c(=O)n2C [Tasquinimod]
Key: 0

Exercise: Write down drug sensitivity score measured for item CC(C)(C)Cn1c(N)nc2ccc(-c3[nH]c(C(C)(C)C)nc3-c3ccc(F)cc3)nc21 [Ralimetinib]
Key: 1.05
